Attribute: Activity
- System: Raji
- PROCEDURE_DETAILS: Antitumor-promoting activity assessed as TPA-induced EBV-early antigen activation in human Raji cells at 32 nmol after 48 hrs relative to TPA
- Format: cell-based
- CONDITION_DESCRIPTION: human gammaherpesvirus 4
READOUT_TYPE: Activity

>  <CHEMICAL_STRUCTURE>
O=C1C[C@@H](c2ccc(O)cc2)Oc2c1c(O)cc(O)c2[C@H]1C(=O)c2c(O)cc(O)cc2O[C@@H]1c1ccc(O)cc1

>  <TARGET_ENTITY>
Raji

>  <READOUT_TYPE>
Activity

>  <REPORTED_RESULT>
19.4%

$$$$
>  <CHEMICAL_STRUCTURE>
O=C1c2c(O)cc(O)cc2O[C@H](c2ccc(O)cc2)[C@H]1c1c(O)cc(O)c2c1O[C@H](c1ccc(O)cc1)[C@@H](O)C2=O

>  <TARGET_ENTITY>
Raji

>  <READOUT_TYPE>
Activity

>  <REPORTED_RESULT>
25.3%

$$$$
>  <CHEMICAL_STRUCTURE>
O=C1c2c(O)cc(O)cc2O[C@@H](c2ccc(O)cc2)[C@@H]1c1c(O)cc(O)c2c(=O)c(O)c(-c3ccc(O)c(O)c3)oc12

>  <TARGET_ENTITY>
Raji

>  <READOUT_TYPE>
Activity

>  <REPORTED_RESULT>
22.1%

$$$$
>  <CHEMICAL_STRUCTURE>
O=C1c2c(O)cc(O)cc2O[C@H](c2ccc(O)cc2)[C@H]1c1c(O)cc(O)c2c1O[C@H](c1ccc(O)c(O)c1)[C@@H](O)C2=O

>  <TARGET_ENTITY>
Raji

>  <READOUT_TYPE>
Activity

>  <REPORTED_RESULT>
28.7%

$$$$

Reference source: ChEMBL document CHEMBL1144150
